- Tested on: 324938-238-R-J1-PDC complex spheroid viability
- assay-comment: Anticancer human tumor 324938-238-R-J1-PDC patient-derived bladder carcinoma cell line growth inhibition
- experimental-context: second compound 0.316 µM; first compound 0.1 µM; stronger effect = lower value
Quick rule for you: viability, T/C under 6% gets class 1, anything else gets class 0.

Answered cases to consult:
INSERT INTO results (compound, assigned_label) VALUES
  ('CC(C)CC(NC(=O)C(Cc1ccccc1)NC(=O)c1cnccn1)B(O)O (stereo unspecified) + NC1CCC(NC2CC2c2ccccc2)CC1', 'class 1'),
  ('Nc1ncn(C2CC(O)C(CO)O2)c(=O)n1 (stereo unspecified) + NC1CCC(NC2CC2c2ccccc2)CC1', 'class 0'),
  ('O=C(C=Cn1cnc(-c2cc(C(F)(F)F)cc(C(F)(F)F)c2)n1)NNc1cnccn1 + NC1CC1c1ccc(-c2cccc(O)c2)cc1', 'class 1');

API: query returns whether the compound falls strictly under 6% in viability, T/C. Query: CC(C)CC(NC(=O)CNC(=O)c1cc(Cl)ccc1Cl)B1OC(=O)CC(CC(=O)O)(C(=O)O)O1 (stereo unspecified) + NC1CCC(NC2CC2c2ccccc2)CC1
class 1

And what about the compound COc1cc(Nc2ncc3c(n2)-c2ccc(Cl)cc2C(c2c(F)cccc2OC)=NC3)ccc1C(=O)O + NC1CCC(NC2CC2c2ccccc2)CC1 ?
class 0

And what about the compound Cn1ncnc1C1c2n[nH]c(=O)c3cc(F)cc(c23)NC1c1ccc(F)cc1 (stereo unspecified) + NC1CC1c1ccc(-c2cccc(O)c2)cc1 ?
class 0

---

- Tested on: 324938-238-R-J1-PDC complex spheroid viability
- assay-comment: Anticancer human tumor 324938-238-R-J1-PDC cell line growth inhibition
- experimental-context: second compound 3.16 µM; first compound 0.949 µM; stronger effect = lower value
- Source text: Multicellular complex tumor spheroid response to LSD1 Inhibitor Iadademstat in combination with a variety of drugs and investigational agents in selected tumor cell lines The current study was undertaken to assess response to LSD1 inhibitors in combination with standard-of-care drugs and investigational agents in solid tumor complex spheroid models as well as in the K-562 leukemia. […] Compounds. […] If the clinical Cmax for an agent had not been determined, the highest concentration tested was 10 microM. […]
Would you kindly list viability, T/C for each of these molecules?
Give bare numbers, in %.

Look over these answered cases.
INSERT INTO results (molecule, result_unit, numeric_value) VALUES
  ('Nc1ccccc1NC(=O)c1ccc(CNC(=O)OCc2cccnc2)cc1 + NC1CCC(NC2CC2c2ccccc2)CC1', '%', 37.9),
  ('COc1cc(C2c3cc4c(cc3C(OC3OC5COC(C)OC5C(O)C3O)C3COC(=O)C23)OCO4)cc(OC)c1O (stereo not drawn) + NC1CC1c1ccc(-c2cccc(O)c2)cc1', '%', 17.3);

Now turn to the next molecule.
Record CCN(c1cc(-c2ccc(CN3CCOCC3)cc2)cc(C(=O)NCc2c(C)cc(C)[nH]c2=O)c1C)C1CCOCC1 + NC1CC1c1ccc(-c2cccc(O)c2)cc1 : what is its viability, T/C with 324938-238-R-J1-PDC complex spheroid viability?
76.6

---

- System: 324938-238-R-J1-PDC complex spheroid viability
- assay-comment: Anticancer human tumor 324938-238-R-J1-PDC cell line growth inhibition; active = viability on the fitted dose curve at most 10% of control; inactive = the rest;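 note: spheroids also contain HUVEC and human MSCs and agents combined with iadademstat; spheroids exposed to agents for 7 days before readout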
- experimental-context: second compound 0.316 µM; first compound 0.0316 µM
The categories you may choose from are true (1) (active), false (0) (inactive)

INSERT INTO results (molecule, assigned_label) VALUES
  ('CC(C)CC(NC(=O)CNC(=O)c1cc(Cl)ccc1Cl)B1OC(=O)CC(CC(=O)O)(C(=O)O)O1 (stereo not given) + NC1CCC(NC2CC2c2ccccc2)CC1', 'true (1)'),
  ('COc1cc(Nc2ncc3c(n2)-c2ccc(Cl)cc2C(c2c(F)cccc2OC)=NC3)ccc1C(=O)O + NC1CC1c1ccc(-c2cccc(O)c2)cc1', 'false (0)'),
  ('O=C(c1cc(Cc2n[nH]c(=O)c3ccccc23)ccc1F)N1CCN(C(=O)C2CC2)CC1 + NC1CC1c1ccc(-c2cccc(O)c2)cc1', 'false (0)'),
  ('CC[C@@]1(O)C(=O)OCc2c1cc1n(c2=O)Cc2cc3c(CN(C)C)c(O)ccc3nc2-1 + NC1CCC(NC2CC2c2ccccc2)CC1', 'true (1)');

Could you now look at the following molecule, please?
Recorded test outcome, item COc1ccc([C@@H](O)c2cc(-c3ncnc4cc(N5CCOCC5)ccc34)c(F)cc2Cl)nn1 + NC1CC1c1ccc(-c2cccc(O)c2)cc1
false (0)

---

- System: 324938-238-R-J1-PDC complex spheroid viability
- assay-comment: Anticancer human tumor 324938-238-R-J1-PDC cell line growth inhibition;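 note: spheroids also contain HUVEC and human MSCs and agents combined with iadademstat; spheroids exposed to agents for 7 days before readout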
- experimental-context: second compound 1 µM; first compound 0.316 µM; stronger effect = lower value
- Excerpt: Multicellular complex tumor spheroid response to LSD1 Inhibitor Iadademstat in combination with a variety of drugs and investigational agents in selected tumor cell lines The current study was undertaken to assess response to LSD1 inhibitors in combination with standard-of-care drugs and investigational agents in solid tumor complex spheroid models as well as in the K-562 leukemia. […] Compounds. […] If the clinical Cmax for an agent had not been determined, the highest concentration tested was 10 microM. […]
Quick rule for you: viability, T/C under 50% gets True, anything else gets False.

Answered cases to consult:
INSERT INTO assay_data (compound, assigned_label) VALUES
  ('CC1COCCN1c1cc(C2(S(C)(=N)=O)CC2)nc(-c2ccnc3[nH]ccc23)n1 (stereo not given) + NC1CC1c1ccc(-c2cccc(O)c2)cc1', 'True'),
  ('O=C(C=Cn1cnc(-c2cc(C(F)(F)F)cc(C(F)(F)F)c2)n1)NNc1cnccn1 + NC1CCC(NC2CC2c2ccccc2)CC1', 'True'),
  ('Nc1ncn(C2CC(O)C(CO)O2)c(=O)n1 (stereo not given) + NC1CCC(NC2CC2c2ccccc2)CC1', 'True');

API: query returns whether the compound falls strictly under 50% in viability, T/C. Query: CC(C)c1c(-c2ccccc2)nc2c(C#N)c[nH]n2c1=O + NC1CCC(NC2CC2c2ccccc2)CC1
False

---

- Tested on: 324938-238-R-J1-PDC complex spheroid viability
- assay-comment: Anticancer human tumor 324938-238-R-J1-PDC cell line growth inhibition;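 note: spheroids also contain HUVEC and human MSCs and agents combined with iadademstat; spheroids exposed to agents for 7 days before readout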
- experimental-context: second compound 0.316 µM; first compound 0.0316 µM; stronger effect = lower value
observed-property: viability, T/C (%)
Numbers only, in %.

Look over these answered cases.
INSERT INTO measurements (compound, numeric_value) VALUES
  ('COc1ccc([C@@H](O)c2cc(-c3ncnc4cc(N5CCOCC5)ccc34)c(F)cc2Cl)nn1 + NC1CCC(NC2CC2c2ccccc2)CC1', 80.8),
  ('CC1COCCN1c1cc(C2(S(C)(=N)=O)CC2)nc(-c2ccnc3[nH]ccc23)n1 (centres undefined) + NC1CC1c1ccc(-c2cccc(O)c2)cc1', 80.1);

// for each compound in input: emit viability, T/C
1. O=C(c1cc(Cc2n[nH]c(=O)c3ccccc23)ccc1F)N1CCN(C(=O)C2CC2)CC1 + NC1CCC(NC2CC2c2ccccc2)CC1
2. CC1COCCN1c1cc(-c2ccnn2C)c2ccnc(-c3ccn[nH]3)c2n1 (centres undefined) + NC1CC1c1ccc(-c2cccc(O)c2)cc1
3. COc1cc(Nc2ncc3c(n2)-c2ccc(Cl)cc2C(c2c(F)cccc2OC)=NC3)ccc1C(=O)O + NC1CCC(NC2CC2c2ccccc2)CC1
4. CC[C@@]1(O)C(=O)OCc2c1cc1n(c2=O)Cc2cc3c(CN(C)C)c(O)ccc3nc2-1 + NC1CC1c1ccc(-c2cccc(O)c2)cc1
5. Nc1ncn(C2CC(O)C(CO)O2)c(=O)n1 (centres undefined) + NC1CC1c1ccc(-c2cccc(O)c2)cc1
6. CC1COCCN1c1cc(-c2ccnn2C)c2ccnc(-c3ccn[nH]3)c2n1 (centres undefined) + NC1CCC(NC2CC2c2ccccc2)CC1

[78.7, 38.1, 37.4, 7.53, 67.6, 52.5]

---

- Tested on: 324938-238-R-J1-PDC complex spheroid viability
- assay-comment: Anticancer human tumor 324938-238-R-J1-PDC cell line growth inhibition;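 note: spheroids also contain HUVEC and human MSCs and agents combined with iadademstat; spheroids exposed to agents for 7 days before readout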
- experimental-context: second compound 0.1 µM; first compound 0.0316 µM; stronger effect = lower value
Would you kindly list viability, T/C for each of these compounds?
Give bare numbers, in %.

Look over these answered cases.
INSERT INTO results (compound, system_tested, observed_property, numeric_value) VALUES
  ('COc1cc(Nc2ncc3c(n2)-c2ccc(Cl)cc2C(c2c(F)cccc2OC)=NC3)ccc1C(=O)O + NC1CCC(NC2CC2c2ccccc2)CC1', '324938-238-R-J1-PDC complex spheroid viability', 'viability, T/C', 39.9),
  ('CC(C)CC(NC(=O)C(Cc1ccccc1)NC(=O)c1cnccn1)B(O)O (stereo not drawn) + NC1CCC(NC2CC2c2ccccc2)CC1', '324938-238-R-J1-PDC complex spheroid viability', 'viability, T/C', 0.03),
  ('O=C(C=Cn1cnc(-c2cc(C(F)(F)F)cc(C(F)(F)F)c2)n1)NNc1cnccn1 + NC1CC1c1ccc(-c2cccc(O)c2)cc1', '324938-238-R-J1-PDC complex spheroid viability', 'viability, T/C', 14.1),
  ('O=C(c1cc(Cc2n[nH]c(=O)c3ccccc23)ccc1F)N1CCN(C(=O)C2CC2)CC1 + NC1CCC(NC2CC2c2ccccc2)CC1', '324938-238-R-J1-PDC complex spheroid viability', 'viability, T/C', 80.8),
  ('COc1cc(Nc2ncc3c(n2)-c2ccc(Cl)cc2C(c2c(F)cccc2OC)=NC3)ccc1C(=O)O + NC1CC1c1ccc(-c2cccc(O)c2)cc1', '324938-238-R-J1-PDC complex spheroid viability', 'viability, T/C', 28.1),
  ('CC[C@@]1(O)C(=O)OCc2c1cc1n(c2=O)Cc2cc3c(CN(C)C)c(O)ccc3nc2-1 + NC1CC1c1ccc(-c2cccc(O)c2)cc1', '324938-238-R-J1-PDC complex spheroid viability', 'viability, T/C', 7.47),
  ('O=C(c1cc(Cc2n[nH]c(=O)c3ccccc23)ccc1F)N1CCN(C(=O)C2CC2)CC1 + NC1CC1c1ccc(-c2cccc(O)c2)cc1', '324938-238-R-J1-PDC complex spheroid viability', 'viability, T/C', 89.8);

Now turn to the next compound.
Fill blank: measured viability, T/C of the compound COc1ccc([C@@H](O)c2cc(-c3ncnc4cc(N5CCOCC5)ccc34)c(F)cc2Cl)nn1 + NC1CCC(NC2CC2c2ccccc2)CC1 is ____.
81.4
